tested on: MCF-10A; assay: Cytotoxicity against human MCF-10A cells assessed as inhibition of cell growth incubated for 72 hrs by Hoechst 33342/propidium iodide staining based fluorescence analysis; format: toxicity; conditions: mcf-10a
pIC50: −log10 of the molar value.
READOUT_KIND: pIC50

SMILES_REPRESENTATION: C=C(C[C@H](NC(=O)OC(C)(C)C)C(=O)OC(C)(C)C)C(=O)Nc1ccc(F)cc1
pIC50: > 3.00

--- query ---
[ask] Which pIC50 is reported for this compound? CC/C(=C(\c1ccccc1)c1ccc(OCCN(C)C)cc1)c1ccccc1
[reply] < 3.00

* * *

tested on: MCF7; assay: Antiproliferative activity against human MCF7 cells assessed as inhibition of cell growth incubated for 72 hrs by Hoechst 33342/propidium iodide staining based fluorescence analysis; assay type: functional; details: MCF7, 72 h
READOUT_KIND: IC50

MOLECULE: C=C1C[C@@H](C(=O)OCC)N(C(=O)OC(C)(C)C)C1=O
IC50: > 1 mM

MOLECULE: C=C(C[C@H](NC(=O)OC(C)(C)C)C(=O)OCC)C(=O)Nc1ccccc1
IC50: > 1 mM

MOLECULE: C=C(C[C@H](NC(=O)OC(C)(C)C)C(=O)OC(C)(C)C)C(=O)N1CCCCC1
IC50: < 1 mM

MOLECULE: C=C(C[C@H](NC(=O)OC(C)(C)C)C(=O)OC(C)(C)C)C(=O)NCc1ccc([N+](=O)[O-])cc1
IC50: > 1 mM

MOLECULE: C=C(C[C@H](NC(=O)OC(C)(C)C)C(=O)OCC)C(=O)NCc1ccc([N+](=O)[O-])cc1
IC50: > 1 mM

[ask] Which IC50 is reported for this molecule? C=C(C[C@H](NC(=O)OC(C)(C)C)C(=O)OCC)C(=O)Nc1ccc(F)cc1
[reply] > 1 mM

[ask] Ok, now C=C(C[C@H](NC(=O)OC(C)(C)C)C(=O)OC(C)(C)C)C(=O)Nc1ccc(F)cc1
[reply] > 1 mM

[ask] Ok, now CC/C(=C(\c1ccccc1)c1ccc(OCCN(C)C)cc1)c1ccccc1 [TAMOXIFEN]
[reply] < 1 mM

[ask] Ok, now C=C(C[C@H](NC(=O)OC(C)(C)C)C(=O)OC(C)(C)C)C(=O)Nc1ccccc1
[reply] > 1 mM

[ask] Ok, now C=C1C[C@@H](C(=O)OC(C)(C)C)NC1=O
[reply] > 1 mM

[ask] Ok, now C=C(C[C@H](NC(=O)OC(C)(C)C)C(=O)OCC)C(N)=O
[reply] > 1 mM

[ask] Ok, now C=C1C[C@@H](C(=O)OC(C)(C)C)N(C(=O)OC(C)(C)C)C1=O
[reply] > 1 mM

[ask] Ok, now C=C(C[C@H](NC(=O)OC(C)(C)C)C(=O)OC(C)(C)C)C(=O)NCc1ccc(F)cc1
[reply] > 1 mM
